assay: Glass transition temperature (Tg) by differential thermal analyzer DSC-60; assay type: physicochemical; settings: second heating to 200° C. at 10° C./min; deemed 200° C. or more when no inflection point until 200° C.

| compound | readout_units | Glass Transition Temperature |
| --- | --- | --- |
| c1cc(C(c2ccc(OCC3CO3)cc2)C(c2ccc(OCC3CO3)cc2)c2ccc(OCC3CO3)cc2)ccc1OCC1CO1 (stereo not drawn) [TEP-G, reference compound] | °C | 47 |
| CC(C)(c1cccc(C(C)(C)c2cc(CO)c(O)c(CO)c2)c1)c1cc(CO)c(O)c(CO)c1 | °C | 135 |
| OCc1cc(C2(c3cc(CO)c(O)c(CO)c3)c3ccccc3-c3ccccc32)cc(CO)c1O | °C | 62 |

----------
test: Evaluation of solvent solubility of phenolic compound in typical resist solvents; format: physicochemical; set-up: key: ⊚: The material for forming a pattern was dissolved at a concentration of 5 wt % at 23° C.; ◯: The material for forming a pattern was dissolved at a concentration of 1 wt % at 23° C.; X: The material for forming a pattern was insoluble; conditions: (D)-2: Propylene glycol monomethyl ether acetate; 1 or 5 wt % at 23° C.

| compound | Solubility in (D)-2 |
| --- | --- |
| CC(C)(c1cc(CO)c(O)c(CO)c1)c1cc(CO)c(O)c(CO)c1 [CA-01, reference compound] | X |

----------
experiment: Glass transition temperature (Tg) by differential thermal analyzer DSC-60; assay type: physicochemical; details: second heating to 200° C. at 10° C./min; deemed 200° C. or more when no inflection point until 200° C.

| smiles_input | Glass Transition Temperature [°C or] |
| --- | --- |
| OCc1cc(C(c2cc(CO)c(O)c(C3CCCCC3)c2)C(c2cc(CO)c(O)c(C3CCCCC3)c2)c2cc(CO)c(O)c(C3CCCCC3)c2)cc(C2CCCCC2)c1O | 200 |
| Cc1cc(C(c2cc(C)c(O)c(CO)c2)C(c2cc(C)c(O)c(CO)c2)c2cc(C)c(O)c(CO)c2)cc(CO)c1O | 200 |
| Cc1cc(C2(c3cc(C)c(O)c(CO)c3)CCC(C(C)(C)C3CCC(c4cc(C)c(O)c(CO)c4)(c4cc(C)c(O)c(CO)c4)CC3)CC2)cc(CO)c1O | 200 |
